meta.source: PubChem BioAssay (Tox21)

# target of assay: Thyrotropin receptor (Homo sapiens)
# experimental details: qHTS assay to identify small molecule antagonists of the thyroid stimulating hormone receptor (TSHR) signaling pathway (AID 1259385); also: % is scaled to controls: 0 for no effect and ±100 for the full control effect; nearly all actives have a fitted effect of over 20% in size
# condition notes: TSHR-HEK293 cAMP HTRF, TSH-stimulated antagonist mode; series mostly up to 92.4 µM
Records with an inconclusive call do not appear. Active and inactive are the calls of the source. Calls follow the shape of the full dose curve.
parameter: outcome

compound=CC[N+](CC)(CC)CC target_of_assay="Thyrotropin receptor (Homo sapiens)" test_value=inactive
compound=CCCn1cc[n+](C)c1 target_of_assay="Thyrotropin receptor (Homo sapiens)" test_value=inactive
compound="CCC(=O)C(CC(C)N(C)C)(c1ccccc1)c1ccccc1 (stereo not drawn)" target_of_assay="Thyrotropin receptor (Homo sapiens)" test_value=inactive

###

# target of assay: Nuclear receptor subfamily 1 group I member 2 (Rattus norvegicus)
# experimental details: Rat pregnane X receptor (rPXR) activation by small molecules, qHTS assay (AID 1346983); also: % is scaled to controls: 0 for no effect and ±100 for the full control effect; nearly all actives have a fitted effect of over 20% in size
# condition notes: rPXR luciferase reporter cells, One-Glo luminescence, 24 h; hits give high values
Records with an inconclusive call do not appear. Calls of active or inactive are those of the source. Calls follow the shape of the dose curve; as a rule, active = well fitted activation curve with a large enough effect in the repeat runs; inconclusive = weak or mixed curves; inactive = no such curve, though single readings can be large or run the other way.
max activation overview

record_smiles=CCOP(=S)(OCC)Oc1ccc2c(C)c(Cl)c(=O)oc2c1 test_value="9.05% (inactive)"
record_smiles=OCCOc1ccccc1 test_value="-2.05% (inactive)"
record_smiles=O=C(O)C(Cl)Cl test_value="-1.74% (inactive)"
record_smiles=C1CCC(NC2CCCCC2)CC1 test_value="-0.555% (inactive)"
record_smiles=COP(=O)(OC)OC=C(Cl)Cl test_value="0.647% (inactive)"

State the recorded max activation for this entry: CCNc1nc(Cl)nc(NCC)n1
-2% (inactive)

State the recorded max activation for this entry: C[C@]12CCC(=O)C=C1CC[C@@H]1[C@@H]2CC[C@]2(C)C(=O)CC[C@@H]12
-1.07% (inactive)

State the recorded max activation for this entry: Oc1ccccc1-c1ccccc1
-1.27% (inactive)

###

# target of assay: Voltage-gated inwardly rectifying potassium channel KCNH2 (Homo sapiens)
# experimental details: Human Ether-a-go-go-Related Gene (hERG) channel small molecule antagonists: fluorescence cell-based qHTS assay (AID 1671200);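 also: hERG-expressing U2OS cells given a thallium stimulus after FluxOR II dye loading; % is scaled to controls: 0 for no effect and ±100 for the full control effect; nearly all actives have a fitted effect of over 50% in size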
# condition notes: hERG-U2OS cells, FluxOR thallium flux fluorescence; series mostly up to 76.8 µM
# Excerpt: National Center for Advancing Translational Sciences [NCATS] U.S. Environmental Protection Agency [EPA] National Institutes of Environmental Health Sciences [NIEHS] National Toxicology Program [NTP] U.S. Food and Drug Administration [FDA] Mutations in the hERG channel cause Long QT (LQT) syndrome. LQT syndrome is a cardiac disorder which can cause ventricle arrhythmia and sudden death. Additionally, compounds which block the hERG channel can cause acquired LQT syndrome. […]
Records with an inconclusive call do not appear. The source made the active and inactive calls. The call rests on the fitted dose curve; in most records, active means well fitted inhibition curve with a large enough effect in the repeat runs; inconclusive means weak or mixed curves; inactive means flat fitted curve, though single readings scatter.
parameter: outcome

record_smiles=COP(=O)(OC)OC=C(Cl)Cl parameter=outcome test_value=inactive
record_smiles=CCCC[N+]1(C)CCCCC1 parameter=outcome test_value=inactive
record_smiles=CCCCn1cc[n+](C)c1C parameter=outcome test_value=inactive

###

# experimental details: Human pregnane X receptor (PXR) small molecule agonists, qHTS cell viability counter screen (AID 1346977); also: nearly all actives have a fitted effect of over 50% in size
# condition notes: PXR-Luc HepG2 viability, CellTiter-Fluor, 24 h; series mostly up to 92.4 µM
# Text: U.S. Tox21 Program National Center for Advancing Translational Sciences [NCATS] NIH Chemical Genomics Center [NCGC] U.S. Environmental Protection Agency [EPA] National Institutes of Environmental Health Sciences [NIEHS] National Toxicology Program [NTP] U.S. Food and Drug Administration [FDA] […]
Records with an inconclusive call do not appear. Calls of active or inactive are those of the source. The call rests on the fitted dose curve; in most records, active means well fitted cell-killing curve with a large enough effect in the repeat runs; inconclusive means weak or mixed curves, or effect the other way; inactive means flat fitted curve, though single readings scatter.
Hi there, use one of these labels in your reply, thanks! active, inactive

Past entries and their recorded results:
compound=CC(=O)O group_label=inactive
compound=CCCC[n+]1ccccc1 group_label=inactive
compound=CCCn1cc[n+](C)c1 group_label=inactive
compound=CCCCCCCCCCCCOS(=O)(=O)O group_label=inactive

Please state the recorded outcome for this compound: COP(=O)(OC)OC=C(Cl)Cl
inactive

Please state the recorded outcome for this compound: C1CCC(NC2CCCCC2)CC1
inactive

Please state the recorded outcome for this compound: CC[N+](CC)(CC)CC
inactive

Please state the recorded outcome for this compound: C=CCOC(Cn1ccnc1)c1ccc(Cl)cc1Cl (centres undefined)
active

Please state the recorded outcome for this compound: CCC[N+]1(C)CCCC1
inactive
